# Tested on: Hepatocyte
# assay.explanation: Cytotoxicity in Wistar rat hepatocytes assessed as glutamic-pyruvic transaminase activity at 0.01 mg/ml after 30 hrs
# Type: cell-based
Give measured Activity for each item. Keep answers brief.

Fill blank: measured Activity of the molecule `COc1cc([C@@H]2c3cc4c(cc3C[C@H]3COC(=O)[C@@H]32)OCO4)cc(OC)c1OC` is ____.
43 IU/L

Fill blank: measured Activity of the molecule `O=C(/C=C/c1ccc(O)c(O)c1)O[C@@H]1C[C@@](OC(=O)/C=C/c2ccc(O)c(O)c2)(C(=O)O)C[C@@H](O)[C@@H]1O` is ____.
20 IU/L

Fill blank: measured Activity of the molecule COc1cc(C(=O)O[C@H]2[C@@H]3C=CO[C@@H](O[C@@H]4O[C@H](CO)[C@@H](O)[C@H](O)[C@H]4O)[C@@H]3[C@@]3(CO)O[C@@H]23)ccc1O [PICROSIDE II] is ____.
27 IU/L
